assay: Toxicity liver stage against HepG2, at 10uM; format: cell-based; set-up: test concentration 10 uM, cell line HepG2-A16-CD81EGFP; conditions: human, HepG2-A16-CD81EGFP cells; read-out: INHIBITION
We begin with a simple list: items and their reported cytotoxicity at 10 µM.
Your answer is read as %, so omit the unit and give the number.

Worked cases, answers included:
[
  {
    "Compound": "O=C(CN1CCc2ccccc21)Nc1ccc(OC(F)F)cc1",
    "cytotoxicity at 10 µM (%)": 16.8
  },
  {
    "Compound": "CCc1noc(CN(C)C(=O)c2ccccc2-c2ncn[nH]2)n1",
    "cytotoxicity at 10 µM (%)": 16.7
  },
  {
    "Compound": "COC(=O)C1(NCc2nc(C)c(C)o2)CCC(C)CC1 (stereo not drawn)",
    "cytotoxicity at 10 µM (%)": -5.54
  },
  {
    "Compound": "CC(C)(C)C(N)C1=NC(=C2N=CN=N2)NO1 (stereo not drawn)",
    "cytotoxicity at 10 µM (%)": -16.9
  },
  {
    "Compound": "Cc1noc(C(C)N2CCN(CCn3ccccc3=O)CC2)n1 (stereo not drawn)",
    "cytotoxicity at 10 µM (%)": 5.31
  }
]

Summary for this compound, `Cc1oc(-c2cccc(F)c2F)nc1CN(C)CCC(C)(C)O` : cytotoxicity at 10 µM is -4.47

Record `COc1cccc(CN(C)C(=O)NCc2c(C)cc(C)[nH]c2=O)c1` , field cytotoxicity at 10 µM: -7.98

Query O=C(c1ccco1)N1CCCC2(CCN(c3nncs3)C2)C1 (stereo not drawn) yields cytotoxicity at 10 µM of -97.4

----------
experiment: Toxicity liver stage against HepG2, at 10uM; assay type: cell-based; set-up: test concentration 10 uM, cell line HepG2-A16-CD81EGFP; conditions: human, HepG2-A16-CD81EGFP cells; read-out: INHIBITION
Measured Parameter: cytotoxicity at 10 µM

[
  {
    "Compound": "CNS(=O)(=O)c1cccc(C(C)NCc2ccccc2)c1 (stereo unspecified)",
    "cytotoxicity at 10 µM": "-2.29%"
  },
  {
    "Compound": "CN(C)c1cccc(C(=O)N2CCCC2c2ncc3c(n2)CCNC3)c1 (stereo unspecified)",
    "cytotoxicity at 10 µM": "-9.97%"
  },
  {
    "Compound": "O=C(Nc1ccccc1)N1C2CCC(O)(CC2)C1CO (stereo unspecified)",
    "cytotoxicity at 10 µM": "-5.2%"
  },
  {
    "Compound": "N#CCCCS(=O)(=O)NC1(c2ccc(F)cc2)CC1",
    "cytotoxicity at 10 µM": "2.9%"
  },
  {
    "Compound": "CN(C)CCOCC1CN(C(=O)c2ccsc2)Cc2ccnn2C1 (stereo unspecified)",
    "cytotoxicity at 10 µM": "-0.0653%"
  }
]

The compound identified as Cc1noc(C)c1-c1ccc(C2CCCN2CCC(N)=O)nc1 (stereo unspecified) registered its cytotoxicity at 10 µM at 1.94%

Field cytotoxicity at 10 µM (entry `CC(C)Cc1cc(C(=O)N2CCC(C(=O)N3CCOCC3)CC2)on1` ) reads -8.61%

Reported cytotoxicity at 10 µM ( `O=C(O)C1CCN(C[C@H]2CC[C@@H](Cc3ccc4c(c3)OCO4)O2)CC1` ) = -7.48%

----------
assay: Toxicity liver stage against HepG2, at 10uM; format: cell-based; set-up: test concentration 10 uM, cell line HepG2-A16-CD81EGFP; settings: human, HepG2-A16-CD81EGFP cells; read-out: INHIBITION
Let's look at some molecules and their measured cytotoxicity at 10 µM.
Form entry: value (%) — number only.

Use these answered entries as a reference point.
[
  {
    "Molecule": "CC(=O)c1c(F)cccc1NC1CCN(C(=O)CC(C)C)CC1",
    "cytotoxicity at 10 µM, %": 22.6
  },
  {
    "Molecule": "CC(C)OCCN1CCN(C(C)c2nc(C3CC3)no2)CC1 (configuration not stated)",
    "cytotoxicity at 10 µM, %": 2.07
  },
  {
    "Molecule": "CCNC(=O)CN(CC)C(=O)Cc1csc(C(C)C)n1",
    "cytotoxicity at 10 µM, %": 1.29
  },
  {
    "Molecule": "CC(C)Cc1cc(-c2cc(-c3ccc[nH]3)nc(N)c2C#N)n[nH]1",
    "cytotoxicity at 10 µM, %": 14.3
  },
  {
    "Molecule": "CC(C)c1ncc(CN2C[C@@H](CN3CCCCC3)[C@@H](CO)C2)cn1",
    "cytotoxicity at 10 µM, %": -10.2
  }
]

The molecule `CCNc1cc2c(nn1)CCN(C(=O)c1cc3cccc(C)c3o1)C2` showed cytotoxicity at 10 µM equal to -8.06

Note to self: cytotoxicity at 10 µM recorded for Cc1nn(C)c(Cl)c1C1CCCN1CC(=O)NCc1ccccn1 (configuration not stated) was -2.07

What the record says about `Cc1cccc(N2CC[C@@H]3CN(C(=O)c4ccco4)CCO[C@@H]3C2)n1` : cytotoxicity at 10 µM is 10.5

Form: molecule = `Cc1ncc2c(n1)CN(CC(=O)Nc1cccnc1)CC2` ; cytotoxicity at 10 µM = 0.66

For reference, reported cytotoxicity at 10 µM for CCC(CO)N(Cc1cccc(-n2cccn2)c1)Cc1ccccn1 (configuration not stated) stands at 6.95

Recorded result, `CCN(CC(=O)NC(C)C)C(=O)c1csc(Cc2ccccc2)n1` , cytotoxicity at 10 µM: -5.43

Value of measured cytotoxicity at 10 µM for the entry `Cc1cc(C)n(C2CN(CCC(N)=O)C2)n1` : -5.04

----------
experiment: Toxicity liver stage against HepG2, at 10uM; assay type: cell-based; design: test concentration 10 uM, cell line HepG2-A16-CD81EGFP; details: human, HepG2-A16-CD81EGFP cells; read-out: INHIBITION
Measured Parameter: cytotoxicity at 10 µM

[
  {
    "Molecule": "O=C(O)C1(Cc2cccc(Cl)c2)CCCN(c2ncnc3[nH]ccc23)C1 (stereo unspecified)",
    "Measured Parameter": "cytotoxicity at 10 µM",
    "Value Observed": "3.63%"
  },
  {
    "Molecule": "O=C(NCCCn1ccnc1)C1CCC(=O)N1Cc1cccs1 (stereo unspecified)",
    "Measured Parameter": "cytotoxicity at 10 µM",
    "Value Observed": "-4.94%"
  },
  {
    "Molecule": "Cc1ccnc(C(=O)N2C[C@@H]3CN(S(C)(=O)=O)CCO[C@@H]3C2)c1",
    "Measured Parameter": "cytotoxicity at 10 µM",
    "Value Observed": "-3.92%"
  },
  {
    "Molecule": "Cn1nc(COc2cccnc2)c2c1CCN(c1ncccn1)C2",
    "Measured Parameter": "cytotoxicity at 10 µM",
    "Value Observed": "-105%"
  },
  {
    "Molecule": "O=S(=O)(NCC1CCN(c2ccccn2)CC1)c1ccccc1F",
    "Measured Parameter": "cytotoxicity at 10 µM",
    "Value Observed": "-0.549%"
  },
  {
    "Molecule": "COCCc1noc(CN(C)C(=O)C(C)N2CCc3ccccc3C2)n1 (stereo unspecified)",
    "Measured Parameter": "cytotoxicity at 10 µM",
    "Value Observed": "-0.262%"
  }
]

Measured cytotoxicity at 10 µM, `CS(=O)(=O)N1CCC2(CCN(C(=O)c3cccs3)CC2)CC1` : -108%

Reported cytotoxicity at 10 µM for Cc1nc(Nc2ccccn2)cc(C2CCCN2Cc2ncc[nH]2)n1 (stereo unspecified) was -3.11%

Value of measured cytotoxicity at 10 µM for the entry CC(=O)N1CCCN(C(C)C(=O)Nc2ccnn2C(C)C)CC1 (stereo unspecified) : -6.22%

Looking up `CN(C(=O)c1cc(Cl)c[nH]1)C1CCN(c2ccccn2)CC1` , I found its cytotoxicity at 10 µM recorded as -1.49%

Item: COc1ncccc1NC(=O)N1CCOCC1C (stereo unspecified) | cytotoxicity at 10 µM: -4.86%

----------
test: Toxicity liver stage against HepG2, at 10uM; format: cell-based; set-up: test concentration 10 uM, cell line HepG2-A16-CD81EGFP; conditions: human, HepG2-A16-CD81EGFP cells; read-out: INHIBITION
Recorded measurements of cytotoxicity at 10 µM, one per entry
Quick note: give the figure in %, leave out the unit.

[
  {
    "Molecule": "Cc1ncc(CN2CCC(c3nc(O)cc(-c4ccsc4)n3)CC2)cn1",
    "cytotoxicity at 10 µM (%)": -11.8
  },
  {
    "Molecule": "NC(=O)C1CCCN(Cc2c(-c3ccco3)[nH]c3ncccc23)C1 (stereo unspecified)",
    "cytotoxicity at 10 µM (%)": 3.91
  },
  {
    "Molecule": "COCCNC(=O)Cn1c(C)cc2nc(SC)n(CC(C)C)c(=O)c21",
    "cytotoxicity at 10 µM (%)": -14.6
  },
  {
    "Molecule": "Nc1cc(C(=O)N2CCC3(CC2)Nc2ccccc2NC3=O)ccn1",
    "cytotoxicity at 10 µM (%)": 6.13
  },
  {
    "Molecule": "O=C(Cn1cnc2ccsc2c1=O)NCCCc1nnc2ccccn12",
    "cytotoxicity at 10 µM (%)": 1.43
  }
]

Let's switch to this molecule now.
// field: cytotoxicity at 10 µM; key: `O=C(Nc1cnc(N2CCOCC2)nc1)c1ccc(C(F)(F)F)cc1` ; value = 9.94
